Recorded TGI for the following compounds
Tested on: HCC-2998 colon
test_method_notes: NCI tumour cell line growth inhibition, 48 h

>  <compound>
CCCCCCCCCCCCCCCCCCOCC(CCP(=O)(CP(=O)(O)O)Oc1ccccc1)OCCCCCCCCCCCCCCCCCC (centres undefined)

>  <assayed_target>
HCC-2998 colon

>  <TGI>
> 100 µM

$$$$
>  <compound>
CN(C)c1nncc2n[nH]nc12

>  <assayed_target>
HCC-2998 colon

>  <TGI>
> 100 µM

$$$$
>  <compound>
CC(=O)O[C@@]1(C)[C@@H](C)C(=O)O[C@@H]2CCN3CC=C(COC(=O)[C@]1(C)O)[C@H]23

>  <assayed_target>
HCC-2998 colon

>  <TGI>
> 100 µM

$$$$
>  <compound>
C=C(C(=C)N1N=NC2C3CCC(C3)C21)N1N=NC2C3CCC(C3)C21 (centres undefined)

>  <assayed_target>
HCC-2998 colon

>  <TGI>
> 100 µM

$$$$
>  <compound>
CN(CC(=O)Nc1nc2ccccc2[nH]1)S(=O)(=O)c1ccc(Cl)cc1

>  <assayed_target>
HCC-2998 colon

>  <TGI>
> 100 µM

$$$$
>  <compound>
C=C1C(=O)O[C@H]2[C@H]1CC/C(COC(=O)C(C)c1ccc(CC(C)C)cc1)=C\CC[C@@]1(C)O[C@@H]21 (some centres undefined)

>  <assayed_target>
HCC-2998 colon

>  <TGI>
3.74 µM

$$$$
>  <compound>
NS(=O)(=O)CC1CC[CH-]CC1.[Cl-].[Cl-].[Cl-].[Cl-].[Cl-].[Sb+5].c1ccncc1

>  <assayed_target>
HCC-2998 colon

>  <TGI>
> 100 µM

$$$$
>  <compound>
CSC1=NNC(SC)=NN1

>  <assayed_target>
HCC-2998 colon

>  <TGI>
> 1 µM

$$$$
>  <compound>
C[N+](C)(C)CC(=O)N/N=C(\C(=O)NC1=C(Cl)C(=O)c2ccccc2C1=O)C(C#N)c1nc(-c2ccc([N+](=O)[O-])cc2)cs1 (centres undefined)

>  <assayed_target>
HCC-2998 colon

>  <TGI>
30.5 µM

$$$$

====

Recorded TGI for the following compounds
Test system: LXFL 529 NSCLC
test_method_notes: NCI tumour cell line growth inhibition, 48 h

>  <compound>
C[N+](C)(C)CC(=O)N/N=C(\C(=O)NC1=C(Cl)C(=O)c2ccccc2C1=O)C(C#N)c1nc(-c2ccc([N+](=O)[O-])cc2)cs1 (stereo not drawn)

>  <TGI>
21.4 µM

$$$$
>  <compound>
O=C(N/N=C1\C(=O)N(c2nccs2)C(=O)C(=O)C1c1nc2ccccc2s1)c1ccccc1O (stereo not drawn)

>  <TGI>
> 100 µM

$$$$
>  <compound>
C/C=C1\CN2CCc3c([nH]c4ccccc34)C2C=C1CCO (stereo not drawn)

>  <TGI>
> 340 µM

$$$$
>  <compound>
C=C(C(=C)N1N=NC2C3CCC(C3)C21)N1N=NC2C3CCC(C3)C21 (stereo not drawn)

>  <TGI>
> 100 µM

$$$$
>  <compound>
O=C(CC(=O)c1cccc2ccccc12)C(=O)NC1C2CC3CC(C2)CC1C3 (stereo not drawn)

>  <TGI>
> 100 µM

$$$$
>  <compound>
COc1cc(C(=O)CC2OC(=O)C(Cl)=C2Cl)ccc1Cl (stereo not drawn)

>  <TGI>
> 100 µM

$$$$
>  <compound>
Cc1ccc2c(ccc(/C=C\c3cc(C)c4cccnc4c3O)[n+]2C)c1

>  <TGI>
18.9 µM

$$$$
>  <compound>
O=c1cc(-c2ccco2)[nH]c2cc3c(cc12)OCO3

>  <TGI>
> 100 µM

$$$$
